measured target: c-Kit(V654A) (Homo sapiens, UniProt P10721, V654A)
Construct: amino acids 544-end containing the V654A mutation; GST (N)
Sequence (P10721 544-976 V654A): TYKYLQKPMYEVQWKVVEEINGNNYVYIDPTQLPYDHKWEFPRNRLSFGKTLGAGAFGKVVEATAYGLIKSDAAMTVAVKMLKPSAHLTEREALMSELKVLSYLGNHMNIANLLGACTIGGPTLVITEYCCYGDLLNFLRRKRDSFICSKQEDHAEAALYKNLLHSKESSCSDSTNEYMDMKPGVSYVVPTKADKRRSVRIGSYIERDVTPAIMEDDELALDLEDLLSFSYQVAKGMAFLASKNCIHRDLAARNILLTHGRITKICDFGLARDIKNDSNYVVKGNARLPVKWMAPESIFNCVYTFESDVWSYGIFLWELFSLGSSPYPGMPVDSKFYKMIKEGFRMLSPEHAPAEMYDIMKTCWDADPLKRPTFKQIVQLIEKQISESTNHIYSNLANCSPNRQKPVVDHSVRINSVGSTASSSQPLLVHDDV
assay procedure: c-Kit(V654A) assay
reported conditions: recombinant human c-Kit aa 544-end, 200 μM ATP, 1.4E-06 means 1.4×10^−6, read-out: Inhibition (IC50) of c-KIT (V654A)
pIC50: −log10 of the molar value.
parameter: pIC50

Some compounds with recorded pIC50:
compound: O=c1[nH]c2ccc(F)cc2cc1-c1cn(-c2ccc(OCCCN3CCNCC3)cc2)nn1
parameter: pIC50
reading: 8.01
--
compound: O=C(c1ccc(-n2cc(-c3cc4cc(Cl)ccc4[nH]c3=O)nn2)cc1)N1CCC[C@H]1CO
parameter: pIC50
reading: 7.64
--
compound: O=C(c1ccc(-n2cc(-c3cc4c(F)cc(F)cc4[nH]c3=O)nn2)cc1)N1CCC(N2CCCC2)C1 (centres unmarked)
parameter: pIC50
reading: 8.01
--
compound: COCCNC(=O)c1ccc(-n2cc(-c3cc4cccnc4[nH]c3=O)nn2)cc1
parameter: pIC50
reading: 6.12

(A) O=C(c1ccc(-n2cc(-c3cc4c(F)c(F)ccc4[nH]c3=O)nn2)cc1)N1CCNCC1
(B) CN1CCN(CCOc2ccc(-n3cc(-c4cc5ccccc5[nH]c4=O)nn3)cc2)CC1
Lower pIC50: A or B ? I would appreciate it if you answered with the label of your choice.
A

(1) O=C1OCCN1c1ccc(-n2cc(-c3cc4cc(F)ccc4[nH]c3=O)nn2)cc1
(2) CO[C@@H]1C[C@@H](CO)N(C(=O)c2ccc(-n3cc(-c4cc5cc(Cl)ccc5[nH]c4=O)nn3)cc2)C1
Task for the reader: decide whether 1 or 2 has the larger pIC50. Pick one; state its label.
2
